- Test system: PPARg homodimer (NR concentration 180 nM)
- assayText: PBM binding z-score (relative to random genomic background probes); higher = stronger binding; sequences stand for … in GC…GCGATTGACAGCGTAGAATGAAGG
assayMetric: PBM binding z-score

chain=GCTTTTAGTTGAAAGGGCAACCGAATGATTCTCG datavalue=0.658
chain=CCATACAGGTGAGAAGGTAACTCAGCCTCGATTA datavalue=0.629
chain=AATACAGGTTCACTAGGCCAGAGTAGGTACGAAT datavalue=0.811
chain=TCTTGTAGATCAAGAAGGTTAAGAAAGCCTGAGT datavalue=0.323
chain=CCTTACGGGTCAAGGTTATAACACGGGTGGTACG datavalue=2.04

###

- Test system: LXRa:RXRa (NR concentration 270 nM, RXRa partner concentration 90 nM)
- assayText: PBM binding z-score (relative to random genomic background probes); higher = stronger binding; sequences stand for … in GC…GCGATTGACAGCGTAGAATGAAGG
Category | rule: reported PBM binding z-score within range, see I = under -0.1, II = from -0.1 up to 2, III = 2 and over

chain=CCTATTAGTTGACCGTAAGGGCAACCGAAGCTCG classname=II
chain=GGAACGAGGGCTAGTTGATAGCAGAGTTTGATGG classname=I
chain=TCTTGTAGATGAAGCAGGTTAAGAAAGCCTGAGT classname=I
chain=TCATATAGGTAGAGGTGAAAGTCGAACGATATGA classname=II
chain=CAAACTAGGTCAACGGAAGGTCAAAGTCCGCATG classname=III
chain=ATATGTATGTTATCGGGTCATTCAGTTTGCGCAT classname=III
chain=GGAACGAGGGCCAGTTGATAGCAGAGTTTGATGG classname=I
chain=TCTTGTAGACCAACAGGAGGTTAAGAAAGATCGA classname=II
chain=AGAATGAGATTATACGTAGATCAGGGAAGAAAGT classname=I
chain=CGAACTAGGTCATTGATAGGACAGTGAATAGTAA classname=III
chain=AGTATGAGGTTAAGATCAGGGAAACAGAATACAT classname=III
chain=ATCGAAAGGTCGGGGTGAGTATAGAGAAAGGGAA classname=III

###

- System: PPARg:RXRa IVT, anti-PPARg (NR concentration 270 nM, RXRa partner concentration 90 nM)
- assayText: PBM binding z-score (relative to random genomic background probes); higher = stronger binding; sequences stand for … in GC…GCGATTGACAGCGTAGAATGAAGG
assayMetric: PBM binding z-score

chain=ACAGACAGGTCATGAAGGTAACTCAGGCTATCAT datavalue=2.7
chain=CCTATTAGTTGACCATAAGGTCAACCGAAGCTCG datavalue=2.48
chain=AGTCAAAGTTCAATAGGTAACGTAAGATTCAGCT datavalue=3.4
chain=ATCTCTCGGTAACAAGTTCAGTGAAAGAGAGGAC datavalue=0.6
chain=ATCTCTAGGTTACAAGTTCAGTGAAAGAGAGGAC datavalue=4.41
chain=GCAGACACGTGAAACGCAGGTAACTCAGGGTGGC datavalue=-0.582
chain=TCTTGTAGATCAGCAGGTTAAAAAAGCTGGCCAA datavalue=0.467
chain=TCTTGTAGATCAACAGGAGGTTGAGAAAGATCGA datavalue=0.267
chain=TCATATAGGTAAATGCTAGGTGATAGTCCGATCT datavalue=2.45
chain=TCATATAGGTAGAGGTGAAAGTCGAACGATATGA datavalue=2.16
chain=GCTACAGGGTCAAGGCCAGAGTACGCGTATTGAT datavalue=3.15
